Molecular target: UniProtKB P00533
Sequence (P00533 whole entry): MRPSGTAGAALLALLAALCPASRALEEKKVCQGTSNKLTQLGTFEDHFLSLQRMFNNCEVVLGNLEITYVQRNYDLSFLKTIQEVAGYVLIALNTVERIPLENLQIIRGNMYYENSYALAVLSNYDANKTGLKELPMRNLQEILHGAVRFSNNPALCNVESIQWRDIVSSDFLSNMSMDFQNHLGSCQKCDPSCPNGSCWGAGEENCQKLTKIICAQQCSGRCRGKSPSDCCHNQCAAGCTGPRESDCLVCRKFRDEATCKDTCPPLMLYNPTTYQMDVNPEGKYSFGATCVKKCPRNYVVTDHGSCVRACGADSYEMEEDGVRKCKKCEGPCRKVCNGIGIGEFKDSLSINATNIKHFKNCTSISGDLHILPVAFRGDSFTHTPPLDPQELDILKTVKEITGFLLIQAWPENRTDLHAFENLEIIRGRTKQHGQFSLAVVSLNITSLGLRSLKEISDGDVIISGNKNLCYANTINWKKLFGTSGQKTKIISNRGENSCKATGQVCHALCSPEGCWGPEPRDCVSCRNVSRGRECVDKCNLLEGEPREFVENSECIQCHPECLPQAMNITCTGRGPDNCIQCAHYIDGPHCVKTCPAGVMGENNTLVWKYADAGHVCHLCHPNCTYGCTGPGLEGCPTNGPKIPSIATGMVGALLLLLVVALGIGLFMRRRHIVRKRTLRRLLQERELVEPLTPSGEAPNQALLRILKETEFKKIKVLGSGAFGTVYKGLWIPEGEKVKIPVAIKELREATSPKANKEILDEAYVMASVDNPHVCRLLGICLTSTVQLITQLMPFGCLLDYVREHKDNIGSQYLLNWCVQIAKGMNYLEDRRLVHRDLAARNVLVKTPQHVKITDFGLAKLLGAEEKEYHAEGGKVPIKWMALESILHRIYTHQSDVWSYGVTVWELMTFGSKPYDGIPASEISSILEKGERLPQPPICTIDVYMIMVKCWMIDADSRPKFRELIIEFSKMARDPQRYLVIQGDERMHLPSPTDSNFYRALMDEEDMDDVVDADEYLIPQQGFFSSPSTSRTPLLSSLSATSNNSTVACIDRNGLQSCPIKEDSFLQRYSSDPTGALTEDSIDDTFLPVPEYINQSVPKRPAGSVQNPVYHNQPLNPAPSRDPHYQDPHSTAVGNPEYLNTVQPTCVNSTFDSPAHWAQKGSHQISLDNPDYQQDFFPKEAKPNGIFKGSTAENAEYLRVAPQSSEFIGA
Assay: Inhibition of EGFR(epidermal growth factor receptor) autophosphorylation in ER22 cell membranes
label 1 if IC50 is below 1000 nM. label 0 if not; exact matches included in label 0.

>>> cat("CC(COC(=O)c1cc(NCc2cc(O)ccc2O)ccc1O)CC(C)(C)C (stereo not given)")
"label 0"
>>> cat("O=C(OCCCc1ccccc1)c1cc(NCc2cc(O)ccc2O)ccc1O")
"label 1"
>>> cat("CC(C)CCCC(C)CCOC(=O)c1cc(NCc2cc(O)ccc2O)ccc1O (stereo not given)")
"label 0"
>>> cat("O=C(OCCc1ccccc1)c1cc(NCc2cc(O)ccc2O)ccc1O")
"label 1"

###

Target: Protein kinase C (PKC)
Experiment: Inhibition of rat PKC(protein kinase-C)
Format: protein assay
IC50 for assorted molecules
attribute_measured: IC50 (µM)

>>> measured_result("CC(COC(=O)c1cc(NCc2cc(O)ccc2O)ccc1O)CC(C)(C)C (centres undefined)")
300
>>> measured_result("COC(=O)c1cc(NCc2cc(O)ccc2O)ccc1O")
400

All figures here come from ChEMBL document CHEMBL1127676.
